assay: NCI Yeast Anticancer Drug Screen. Data for the rad50 strain (AID 155);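 further: 0% = growth of vehicle-only cultures of the same strain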; settings: S. cerevisiae rad50 strain growth inhibition; at 100.0 µM; hits give high values
This is part of a sample that, as a whole, favours compounds with a hit. Of some 79,000 tested, about 15% had one in any assay.
assay_endpoint: growth inhibition (%)
Answers are plain numbers, in %.

The following compounds have reported results that may help.
compound | growth inhibition, %
CCOC(=O)c1sc2[n+](c1C)C(=O)/C(=C/c1cc(OC)c(OC)c(OC)c1)S2 | 87
Cc1ccccc1C1=C(CC(=O)O)c2ccccc2CC1C (centres undefined) | 99
Cc1c(N=Nc2ccc(Cl)cc2)c(C)n(C2OC(CO)C(O)C(O)C2O)c(=S)c1C#N (centres undefined) | 66
CN(NC(=O)/C(=C/C=C/c1ccccc1)NC(=O)c1ccccc1)C1=C(Cl)C(=O)[N+](c2ccccc2)=CC1 | 67
c1ccc2cc(OCC3CO3)c(OCC3CO3)cc2c1 (centres undefined) | 83
CN(C)/N=N/c1nc[nH]c1C(N)=O | 97
COc1ccc(/C=C2\CCc3ccccc3C2=O)cc1OC | 82
Cc1nc2ccccc2c(=O)n1NC(=O)c1ccc(CS)cc1 | 97
S=c1[nH]nc(Cc2ccccc2)c(=S)[nH]1 | 95
O=C1c2ccc(O)cc2C(=O)c2c(O)ccc(O)c21 | 89

# map each compound to its growth inhibition
1. CCCCCCCCCCCCCCCCCN
2. O=C(Cc1ccccc1)c1ccc(O)cc1
3. CN1CCN(c2ccc3nc(-c4ccc5nc(-c6ccc(O)cc6)[nH]c5c4)[nH]c3c2)CC1

[94, 85, 98]

Please give growth inhibition for each item listed below.
1. Cc1ccc(S(=O)(=O)N/N=C/c2c(O)ccc3ccccc23)cc1
2. OC1C#CCSCC#C/C=C\1 (centres undefined)
3. CC(C)(C(=O)NN)c1ccccc1

78
97
82

// for each compound in input: emit growth inhibition
1. COc1ccc(CCN2C(=O)C=CC2=O)cc1OC
2. CN(C)N1C(=O)SCC(c2ccccc2)(c2ccccc2)C1=O
3. [N-]=[N+]=NC1CC(n2ccc(=O)[nH]c2=O)OC1COC(c1ccccc1)(c1ccccc1)c1ccccc1 (centres undefined)
4. S=C1NC2=C(CSC/C2=C\c2ccc(Cl)cc2)C(c2ccc(Cl)cc2)N1 (centres undefined)
5. Cc1cnccc1N=Nc1ccc(N(C)C)cc1
6. CCCCCC/C(C)=N/Nc1ccc([N+](=O)[O-])cc1[N+](=O)[O-]
7. c1cncc(C(Nc2cccc3cccnc23)Nc2cccc3cccnc23)c1
8. O=C1OC(c2ccc(Cl)cc2)Sc2ccccc21 (centres undefined)

[98, 50, 83, 71, 37, 14, 81, 92]

----------
assay: NCI Yeast Anticancer Drug Screen. Data for the mlh1 strain (AID 171);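 further: 0% = growth of vehicle-treated control cultures of the same strain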; conditions: S. cerevisiae mlh1 strain growth inhibition; at 100.0 µM; hits give high values
This is part of a sample that, as a whole, favours compounds with a hit. Of some 79,000 tested, about 15% had one in any assay.
# cutoff 90% applies to growth inhibition; >= gives class 1, < gives class 0

Field: example entries. Status: answers known.
compound | discrete_label
Cc1ccc2oc(-c3cccc(N)c3)nc2c1 | class 0
Cc1ccc2c(/C=C/c3ccc(N(C)C)cc3)ccnc2c1C | class 0
COc1ccc(/C(=N/O)c2ccccc2C2=Nc3ccccc3C(NCc3ccccc3)O2)cc1C (stereo not drawn) | class 1

Has CCC(C)/C(C)=N/NC(N)=O (stereo not drawn) a recorded growth inhibition greater than or equal to 90%?
class 0

For this compound, is measured growth inhibition 90% or higher? CC(C)c1ccc(C2NC(=S)NC3=C2c2ccccc2C3=O)cc1 (stereo not drawn)
class 0

Is the recorded value of growth inhibition equal to or greater than 90% for this compound? COC(=O)C1(N2CCOCC2)CCC([C@@H](c2ccccc2)C(C)[N+](=O)[O-])C1 (stereo partly drawn)
class 0

Determine whether measured growth inhibition meets or exceeds 90% for CN(NC(=O)/C(=C/C=C/c1ccccc1)NC(=O)c1ccccc1)C1=C(Cl)C(=O)[N+](c2ccccc2)=CC1
class 0

Reported growth inhibition at or above 90%? O=C(O)NCC1CCCCC1 (tested in a mixture with another compound)
class 0

Quick check, growth inhibition >= 90%? Oc1ccc(Br)cc1C=Nc1cccc(C(F)(F)F)c1
class 1

Answer whether growth inhibition of Cc1ccc(P(c2ccc(C)cc2)c2ccc(C)cc2)cc1 is greater than or equal to 90%.
class 0

Quick check: does O=S(=O)(O)c1ccc2c(N=Nc3c(O)ccc4ccccc34)cccc2c1 have growth inhibition greater than or equal to 90%?
class 0
